// half-life lookup, one value per entry
Test: Plasma pharmacokinetics and urinary elimination after single oral and intravenous administration
Assay type: in vivo, FVB mice
Details: FVB, mouse, plasma, po, 60 mg/kg, p.o. 60 mg/Kg; read-out: Half-life (converted)
Experimental: Mice were treated with ZST316 and ZST152 using a dose of 60 mg/Kg (oral gavage) and 30 mg/Kg (intravenous bolus). For pharmacokinetic sampling, blood was collected at 15 and 30 min, and 1, 3, 8, and 24 h post dose. Three mice were analyzed per each time point. After the animals were anesthetized with isoflurane, the blood was drained from the retro-orbital plexus into heparinized tubes, and then centrifuged for 10 min at 4000× g at 4 °C to separate plasma. […]
recorded_endpoint: half-life (min)

INSERT INTO measurements (smiles_string, recorded_number) VALUES
  ('COCCNC(=N)NCCC[C@H](N)c1noc(=O)[nH]1', 51.6),
  ('COCCNC(=N)NCCC[C@H](N)C(=O)NS(C)(=O)=O', 97.8);

----------
assay: Urinary metabolites in 24 h urine by HPLC-MS/MS; type: in vivo, FVB mice; conditions: after intravenous ZST316, total dose 1.326 mg, mouse #1, 24 h urine
Rule: % of Dose recovered in urine below 0.4% gives true (1), anything at or above gives false (0).

INSERT INTO results (molecule, qualitative_label) VALUES
  ('COCCNC(=N)NCCC[C@H](N)C(=O)NS(C)(=O)=O [ZST316]', 'false (0)'),
  ('COCCNC(=N)N [M1]', 'true (1)'),
  ('COCCNC(=N)NCCCC(=O)O [M4]', 'false (0)'),
  ('COCCNC(=N)NCCC[C@H](N)C(=O)O [M7]', 'false (0)'),
  ('COCCNC(=N)NCCC[C@H](O)C(=O)NC(C)=O [M9]', 'true (1)'),
  ('COCCNC(=N)NCCC[C@H](O)C(=O)O [M8]', 'true (1)');

----------
assay: Plasma pharmacokinetics and urinary elimination after single oral and intravenous administration; format: in vivo, FVB mice; conditions: FVB, mouse, plasma, po, 60 mg/kg, p.o. 60 mg/Kg, single dose
recorded_endpoint: Cmax (ng/mL)

INSERT INTO results (smiles_string, recorded_number) VALUES
  ('COCCNC(=N)NCCC[C@H](N)C(=O)NS(C)(=O)=O', 1020);

----------
test: Plasma pharmacokinetics and urinary elimination after acute and chronic intraperitoneal administration; format: in vivo, FVB mice; conditions: FVB, mouse, plasma, ip; i.p. 30 mg/Kg, acute; read-out: F % (bioavailability)
recorded_endpoint: bioavailability (%)

INSERT INTO results (smiles_string, unit_spec, recorded_number) VALUES
  ('COCCNC(=N)NCCC[C@H](N)C(=O)NS(C)(=O)=O', '%', 67);

----------
test: Plasma pharmacokinetics and urinary elimination after acute and chronic intraperitoneal administration; assay type: in vivo, FVB mice; settings: FVB, mouse, plasma, ip; i.p. 30 mg/Kg/day, chronic
recorded_endpoint: half-life

INSERT INTO results (smiles_string, result) VALUES
  ('COCCNC(=N)NCCC[C@H](N)C(=O)NS(C)(=O)=O', '8.4 h');

----------
The following compounds are shown together with reported AUC(0-t) values.
test: Plasma pharmacokinetics and urinary elimination after single oral and intravenous administration; type: in vivo, FVB mice; details: FVB, mouse, plasma, iv, 30 mg/kg, i.v. 30 mg/Kg; read-out: AUC 0-8h
recorded_endpoint: AUC(0-t) (µg·h/mL)

INSERT INTO assay_data (smiles_string, unit_spec, recorded_number) VALUES
  ('COCCNC(=N)NCCC[C@H](N)c1noc(=O)[nH]1', 'µg·h/mL', 9.25),
  ('COCCNC(=N)NCCC[C@H](N)C(=O)NS(C)(=O)=O', 'µg·h/mL', 21.4);

----------
test: Plasma pharmacokinetics and urinary elimination after single oral and intravenous administration; format: in vivo, FVB mice; details: FVB, mouse, plasma, iv, 30 mg/kg, i.v. 30 mg/Kg; read-out: Half-life (converted)
recorded_endpoint: half-life (h)

INSERT INTO assay_data (compound, recorded_endpoint, recorded_number) VALUES
  ('COCCNC(=N)NCCC[C@H](N)C(=O)NS(C)(=O)=O [ZST316]', 'half-life', 6),
  ('COCCNC(=N)NCCC[C@H](N)c1noc(=O)[nH]1 [ZST152]', 'half-life', 1.2);
